# measurementTarget: Serine/threonine-protein kinase/endoribonuclease IRE1 [547-977] (Homo sapiens)
# Sequence (O75460 547-977): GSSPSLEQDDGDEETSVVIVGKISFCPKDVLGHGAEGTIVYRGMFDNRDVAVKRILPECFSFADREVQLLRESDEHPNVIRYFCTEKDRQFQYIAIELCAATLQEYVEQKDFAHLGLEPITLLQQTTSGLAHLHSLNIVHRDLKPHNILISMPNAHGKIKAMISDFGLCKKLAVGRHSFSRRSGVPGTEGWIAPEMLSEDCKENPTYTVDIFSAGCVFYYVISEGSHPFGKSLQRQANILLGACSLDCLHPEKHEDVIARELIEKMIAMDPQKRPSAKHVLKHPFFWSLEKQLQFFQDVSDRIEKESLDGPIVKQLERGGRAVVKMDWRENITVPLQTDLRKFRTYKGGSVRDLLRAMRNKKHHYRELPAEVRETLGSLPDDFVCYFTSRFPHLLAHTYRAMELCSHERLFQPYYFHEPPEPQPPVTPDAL
pIC50: −log10 of the molar value.
Could you label it MET if measured pIC50 is 6 or higher, and NOT MET otherwise?

## Task Form field: pIC50 at least 6? Entry: COc1cc(NC(=O)Nc2ccc(-c3nc(C4(C)CC4)n4ccnc(N)c34)c3ccccc23)cc(C(F)(F)F)c1 [KIRA analog, 17]
## Result MET

## Task Form field: pIC50 at least 6? Entry: CN1CCN(Cc2ccc(NC(=O)Nc3ccc(-c4nc(C5(C)CC5)n5ccnc(N)c45)c4ccccc34)cc2C(F)(F)F)CC1 [KIRA analog, 20]
## Result MET

## Task Form field: pIC50 at least 6? Entry: Cc1cc(NC(=O)Nc2ccc(-c3nc(C4(C)CC4)n4ccnc(N)c34)c3ccccc23)n[nH]1 [KIRA analog, 22]
## Result NOT MET

## Task Form field: pIC50 at least 6? Entry: CC1(c2nc(-c3ccc(NC(=O)Nc4cccc(C(F)(F)F)c4)c(F)c3F)c3c(N)nccn23)CC1 [KIRA analog, 11]
## Result NOT MET

## Task Form field: pIC50 at least 6? Entry: CC1(c2nc(-c3ccc(NC(=O)N4CCCCC4)c4ccccc34)c3c(N)nccn23)CC1 [KIRA analog, 27]
## Result NOT MET

## Task Form field: pIC50 at least 6? Entry: CC1(c2nc(-c3ccc(NC(=O)NCCc4ccccc4)c4ccccc34)c3c(N)nccn23)CC1 [KIRA analog, 24]
## Result NOT MET

## Task Form field: pIC50 at least 6? Entry: CC1(c2nc(-c3ccc(NC(=O)Nc4cccc(C(F)(F)F)c4)c4ccccc34)c3c(N)nccn23)COC1 [KIRA analog, 6]
## Result MET

## Task Form field: pIC50 at least 6? Entry: CC1(c2nc(-c3ccc(NC(=O)NCc4ccccc4)c4ccccc34)c3c(N)nccn23)CC1 [KIRA analog, 23]
## Result NOT MET

## Task Form field: pIC50 at least 6? Entry: CC(C)(C)c1nc(-c2ccc(NC(=O)Nc3cccc(C(F)(F)F)c3)c3ccccc23)c2c(N)nccn12 [KIRA analog, 2]
## Result MET

## Task Form field: pIC50 at least 6? Entry: Nc1nccn2c(C3CC3)nc(-c3ccc(NC(=O)Nc4cccc(C(F)(F)F)c4)c4ccccc34)c12 [KIRA analog, 5]
## Result MET

## Task Form field: pIC50 at least 6? Entry: COc1cccc(NC(=O)Nc2ccc(-c3nc(C4(C)CC4)n4ccnc(N)c34)c3ccccc23)c1 [KIRA analog, 15]
## Result MET

## Task Form field: pIC50 at least 6? Entry: CC1(c2nc(-c3ccc(NC(=O)Nc4cccc(C(F)(F)F)c4)cc3F)c3c(N)nccn23)CC1 [KIRA analog, 7]
## Result MET

## Task Form field: pIC50 at least 6? Entry: CNS(=O)(=O)c1cccc(NC(=O)Nc2ccc(-c3nc(C4(C)CC4)n4ccnc(N)c34)c3ccccc23)c1 [KIRA analog, 19]
## Result NOT MET

## Task Form field: pIC50 at least 6? Entry: CSc1cccc(NC(=O)Nc2ccc(-c3nc(C4(C)CC4)n4ccnc(N)c34)c3ccccc23)c1 [KIRA analog, 16]
## Result MET

## Task Form field: pIC50 at least 6? Entry: Nc1nccn2c(C3CCC3)nc(-c3ccc(NC(=O)Nc4cccc(C(F)(F)F)c4)c4ccccc34)c12 [KIRA analog, 4]
## Result MET

## Task Form field: pIC50 at least 6? Entry: CC1(c2nc(-c3ccc(NC(=O)NC4CCCCC4)c4ccccc34)c3c(N)nccn23)CC1 [KIRA analog, 25]
## Result NOT MET

## Task Form field: pIC50 at least 6? Entry: CC(C)(C)c1nc(-c2ccc(NC(=O)N3CCN(c4cccc(C(F)(F)F)c4)C3=O)c3ccccc23)c2c(N)nccn12 [KIRA analog, 30]
## Result NOT MET

## Task Form field: pIC50 at least 6? Entry: CN(C(=O)Nc1ccc(-c2nc(C3(C)CC3)n3ccnc(N)c23)c2ccccc12)c1cccc(C(F)(F)F)c1 [KIRA analog, 29]
## Result NOT MET

## Task Form field: pIC50 at least 6? Entry: CC1(c2nc(-c3ccc(NC(=O)OCC(=O)c4ccccc4)c4ccccc34)c3c(N)nccn23)CC1 [KIRA analog, 32]
## Result NOT MET

## Task Form field: pIC50 at least 6? Entry: Cc1cccc(NC(=O)Nc2ccc(-c3nc(C4(C)CC4)n4ccnc(N)c34)c3ccccc23)c1 [KIRA analog, 14]
## Result MET

## Task Form field: pIC50 at least 6? Entry: CC1(c2nc(-c3ccc(NC(=O)OCCc4ccccc4)c4ccccc34)c3c(N)nccn23)CC1 [KIRA analog, 31]
## Result NOT MET

## Task Form field: pIC50 at least 6? Entry: CC1(c2nc(-c3ccc(NC(=O)N4CCOCC4)c4ccccc34)c3c(N)nccn23)CC1 [KIRA analog, 26]
## Result NOT MET

## Task Form field: pIC50 at least 6? Entry: CC1(c2nc(-c3ccc(NC(=O)NC4CC4)c4ccccc34)c3c(N)nccn23)CC1 [KIRA analog, 28]
## Result NOT MET

## Task Form field: pIC50 at least 6? Entry: CN1CCN(Cc2ccc(NC(=O)Nc3ccc(-c4nc(C5(C)CC5)n5ccnc(N)c45)c4ccccc34)cc2)CC1 [KIRA analog, 21]
## Result MET

## Task Form field: pIC50 at least 6? Entry: CC1(c2nc(-c3ccc(NC(=O)Nc4cccc(C(F)(F)F)c4)cc3Cl)c3c(N)nccn23)CC1 [KIRA analog, 9]
## Result NOT MET

## Task Form field: pIC50 at least 6? Entry: CC1(c2nc(-c3ccc(NC(=O)Nc4cc(F)cc(C(F)(F)F)c4)c4ccccc34)c3c(N)nccn23)CC1 [KIRA analog, 18]
## Result MET
